# TGI listing for each entry below
system: SF-268 CNS; assay: NCI tumour cell line growth inhibition, 48 h

Previously resolved entries follow.
| Structure Smiles | Measured |
| --- | --- |
| O=[N+]([O-])c1ccc(-c2nnc(C34CC5CC(CC(C5)C3)C4)o2)cc1 | > 100 µM |
| c1ccc([P+](Cc2ccc(C[P+](c3ccccc3)(c3ccccc3)c3ccccc3)cc2)(c2ccccc2)c2ccccc2)cc1 | > 100 µM |
| C=CCC[CH2][Sn]([c]1ccccc1)([c]1ccccc1)[c]1ccccc1 | 2.71 µM |

Here is the next item to consider.
The compound identified as `C/C(=N/NC(=S)Nc1ccc([N+](=O)[O-])cc1)c1cccc(/C(C)=N\NC(=S)Nc2ccc([N+](=O)[O-])cc2)n1` registered its TGI at > 100 µM

###

system: SK-MEL-5 melanoma; test: NCI tumour cell line growth inhibition, 48 h
Reported Property: TGI

| Compound | Measured |
| --- | --- |
| O=c1/c(=C/c2ccccc2F)sc2nc3ccccc3n12 | > 100 µM |
| Cc1ccc(N=Cc2ccc3c(c2)OCO3)cc1C | > 100 µM |
| COc1cc(OC)c2c(c1)C(=O)C(CC(C)O)=CC2=O (stereo not given) | 28 µM |
| CCOC(=O)c1nc2ccc(Cl)cc2c2c1Cc1ccccc1-2 | > 100 µM |
| COc1ccc(/C=C2\C(=O)N(C3OC(COC(C)=O)C(OC(C)=O)C(OC(C)=O)C3OC(C)=O)c3ccccc3N=C2N)cc1 (stereo not given) | 23.4 µM |
| C[n+]1c2ccccc2c(C(=O)Nc2ccc(S(=O)(=O)Nc3ccnn3-c3ccccc3)cc2)c2ccccc21 | > 100 µM |
| Cc1cc(N(CCC#N)CCC#N)ccc1N=Nc1cccc(C(=O)O)c1 | > 100 µM |
| Cc1[nH]ccc2c1[nH]c1cc(=O)ccc12 | > 100 µM |
| CC(=O)OCOC(=O)CN(CC(=O)OCOC(C)=O)Cc1cc2c(cc1OC(C)=O)Oc1cc(OC(C)=O)c(CN(CC(=O)OCOC(C)=O)CC(=O)OCOC(C)=O)cc1C21OC(=O)c2ccccc21 | 2.12 µM |

Here is the next item to consider.
The compound identified as `C=CCOc1cccc(/C=C2\SC(=Nc3ccc(O)cc3)NC2=O)c1` registered its TGI at 2.44 µM

###

tested on: KM20L2 colon; experiment: NCI tumour cell line growth inhibition, 48 h
Reported Property: TGI

Previously resolved entries follow.
| Molecule | TGI |
| --- | --- |
| Cc1[nH]ccc2c1[nH]c1cc(=O)ccc12 | > 100 µM |
| COC(=O)C(=O)C1(CCC(C)=O)c2ccccc2-c2c(C)ccc(C)c21 (stereo not given) | > 100 µM |
| Cc1cccc2nc3c(C(=O)NCCN(C)C)cccc3cc12 | 4.98 µM |
| CC1(C)C(=NNC(=O)C[N+](C)(C)C)C(C)(C)C1=NNC(=O)C[N+](C)(C)C | > 100 µM |

The molecule identified as COc1cc(Cn2c3ccccc3c3cc(C)c4c(c32)C=CC(C)(CCC=C(C)C)O4)cc2c1[nH]c1ccccc12 (stereo not given) registered its TGI at > 100 µM

The molecule identified as C=CC/C=C/Cc1csc(C(C)(C)C(O)C/C=C/C(=C)CCNC(=O)OC)n1 (stereo not given) registered its TGI at > 100 µM

The molecule identified as `C/C(=N\NS(=O)(=O)c1ccccc1)c1ccc(Cl)c(Cl)c1` registered its TGI at > 100 µM

###

test system: OVCAR-8 ovarian; assay: NCI tumour cell line growth inhibition, 48 h
Reported Property: TGI

Previously resolved entries follow.
| Compound | TGI |
| --- | --- |
| COc1cc2c(c(OC)c1)C1c3ccccc3NC(=O)N1CC2 (stereo unspecified) | > 100 µM |
| [N-]=[N+]=Nc1c(C=O)c(=O)n2c3c(cccc13)CCC2 | 17.8 µM |
| O=C(C1OC1c1ccc(O)cc1)C12CC3CC(CC(C3)C1)C2 (stereo unspecified) | > 100 µM |
| Cc1cc(N(CCC#N)CCC#N)ccc1N=Nc1cccc(C(=O)O)c1 | > 100 µM |
| NC1CC(=O)c2sc(I)cc21 (stereo unspecified) | > 100 µM |
| CC(=O)CCCCC(=O)Nc1ccc(CC(NC(=O)OC(C)(C)C)C(=O)NCC(=O)OCc2ccccc2)cc1 (stereo unspecified) | 39.7 µM |
| Cc1cc(N(CCCl)CCCl)ccc1C=Nc1ccc(-c2csc(Cc3ccccc3)n2)cc1 | 46.2 µM |
| CC1=Nc2ccccc2S/C1=C(/C)NNC(=O)C(N)=O | > 100 µM |

The compound identified as COC(C(=O)[O][Ge]([CH3])([CH3])[CH3])c1ccccc1 (stereo unspecified) registered its TGI at > 100 µM

The compound identified as `O=C(N/N=C(/c1ccccc1)C(F)(F)F)c1ccncc1` registered its TGI at > 100 µM

The compound identified as `C/C(=N\NS(=O)(=O)c1ccccc1)c1ccc(Cl)c(Cl)c1` registered its TGI at > 100 µM

The compound identified as `O=C1C(Br)=CC2(C=C1Br)CCNC1=C2C(=O)c2ccccc2C1=O` registered its TGI at 98 µM

The compound identified as `O=[N+]([O-])C(C(Cl)=C(Cl)Cl)=C(N(Cc1ccccc1)Cc1ccccc1)N(Cc1ccccc1)Cc1ccccc1` registered its TGI at > 100 µM

The compound identified as CC12CCC(CC1=O)C2(C)CCC(N)=O (stereo unspecified) registered its TGI at > 100 µM

The compound identified as `CC[C@H]1C=CCC[C@@]2(C[C@@H]3CC[C@@H]4[C@H](C(=O)OCCCCCCCCCCCCCCCC(=O)O)[C@]5(CCC[C@@H](C)O5)NC(=[N+]34)N2)O1` registered its TGI at 8.03 µM

The compound identified as CC1(C)CC(=O)c2c(C(F)(F)F)nn(-c3ccc(C(N)=O)c(NC4CCC(OC(=O)CN)CC4)c3)c2C1 (stereo unspecified) registered its TGI at > 100 µM

###

test system: BT-549 breast; assay: NCI tumour cell line growth inhibition, 48 h
Reported Property: TGI (µM)
State the answer as a number, implicitly in µM.

| Structure Smiles | Unit Abbrev | TGI |
| --- | --- | --- |
| CC(=O)N1C(=O)/C(=C\C(=O)c2ccc([N+](=O)[O-])cc2)c2ccccc21 | µM | 42.1 |

Here is the next item to consider.
The compound identified as `CN1CC[C@@]2(c3cccc(O)c3)CC(=O)/C(=C/c3ccccc3)[C@H]1C2` registered its TGI at 26.7

###

# TGI listing for each entry below
tested on: OVCAR-3 ovarian; experiment: NCI tumour cell line growth inhibition, 48 h

| Molecule | TGI |
| --- | --- |
| COc1ccc(-c2nn3c(-c4cc(F)c(Cl)cc4Cl)nnc3s2)cc1 | 66.7 µM |

The molecule identified as `N=c1oc2c(Cl)cc(Cl)cc2cc1C(=O)Nc1cccc2ccccc12` registered its TGI at > 40 µM

The molecule identified as CC1SC2=NC3=C(c4ccccc4C3=O)C(c3ccc(F)cc3)N2C1=O (stereo unspecified) registered its TGI at > 100 µM

The molecule identified as `O=c1c2nn3c(=O)n(-c4ccccc4)c(=O)c3nn2c(=O)n1-c1ccccc1` registered its TGI at > 100 µM

The molecule identified as `CC(=O)OCOC(=O)CN(CC(=O)OCOC(C)=O)Cc1cc2c(cc1OC(C)=O)Oc1cc(OC(C)=O)c(CN(CC(=O)OCOC(C)=O)CC(=O)OCOC(C)=O)cc1C21OC(=O)c2ccccc21` registered its TGI at 2.98 µM

The molecule identified as `O=C(N/N=C(/c1ccccc1)C(F)(F)F)c1ccncc1` registered its TGI at > 100 µM

###

test system: OVCAR-3 ovarian; assay: NCI tumour cell line growth inhibition, 48 h
Reported Property: TGI

| Compound | TGI |
| --- | --- |
| O=S(=O)(O)c1ccc2cccc(N=Nc3c(O)ccc4ccccc34)c2c1 | > 100 µM |
| O=C1C(Cl)=C(OCCCCl)C(=O)c2c(O)ccc(O)c21 | 6.77 µM |
| O=C(COc1ccc2c(=O)cc(-c3ccccc3)oc2c1)N1CCN(c2ccccc2)CC1 | > 100 µM |

Here is the next item to consider.
The compound identified as CCCCCCCCCCCC(=O)OCC1OC(n2cc(F)c(=O)[nH]c2=O)C(NC(=O)OCc2ccccc2)C(OC(=O)CCCCCCCCCCC)C1O (stereo not given) registered its TGI at > 100 µM

###

# GI50 listing for each entry below
system: NCI-H23 lung; assay: NCI tumour cell line growth inhibition, 48 h

| Compound | GI50 |
| --- | --- |
| COc1ccc(/C(C#N)=C/c2ccccc2OC)cc1 | 18.8 µM |
| COc1cccc2c1c(C(=O)C(=O)Nc1cc(C)no1)cn2Cc1ccc(F)cc1 | > 40.5 µM |
| COC(=O)[C@@]1(C)CC[C@]2(C)CC[C@]3(C)C4=CC=C5C(=CC(=O)C(O)=C5C)[C@]4(C)[C@@H](O)C[C@@]3(C)[C@@H]2C1 | 13.5 µM |
| CCCCCCCCN=C(N)c1ccc(N2CCN(c3ccc(C(N)=NCCCCCCCC)cc3)CC2)cc1 | 1.52 µM |
| COc1ccc(/C(=C2/O[C@@H]([C@H]3COC(C)(C)O3)[C@H]3OC(C)(C)O[C@@H]23)c2cc(OC)c(OC)c(OC)c2)cc1O | 21.8 µM |

The compound identified as `CC#C[C@]1(O)CC[C@H]2[C@@H]3CCC4=CC(=O)CCC4=C3[C@@H](c3ccc4c(c3)OCO4)C[C@@]21C` registered its GI50 at 152 µM

The reported measurements were obtained from PubChem BioAssay (NCI).
